Test system: RAW264.7
Assay: Inhibition of TNFalpha expression in mouse RAW264.7 cells at 10 uM per-treated with compound for 2 hrs before LPS challenge for 22 hrs by ELISA method
Format: functional
Measurement type: inhibition at 10 µM (%)
Use % as the unit, but write only the number.

[[record]]
smiles_string = "CN(C)c1ccc(/C=C2\\CNC/C(=C\\c3ccc(N(C)C)cc3[N+](=O)[O-])C2=O)c([N+](=O)[O-])c1"
unit_abbrev = "%"
test_result = 73


Need inhibition at 10 µM, item CCOC(OCC)c1ccc(/C=C2\COC/C(=C\c3ccc(C(OCC)OCC)cc3)C2=O)cc1
73

Could you tell me which inhibition at 10 µM is on file for CN1C/C(=C\c2ccc(N(C)C)cc2[N+](=O)[O-])C(=O)/C(=C/c2ccc(N(C)C)cc2[N+](=O)[O-])C1 ?
91

Requested read-out: inhibition at 10 µM. Entry: CN(C)c1ccc(/C=C2\COC/C(=C\c3ccc(N(C)C)cc3[N+](=O)[O-])C2=O)c([N+](=O)[O-])c1
73

Reported inhibition at 10 µM for CCOC(OCC)c1ccc(/C=C2\CNC/C(=C\c3ccc(C(OCC)OCC)cc3)C2=O)cc1 : what is it?
91

Name the recorded inhibition at 10 µM for CCOC(OCC)c1ccc(/C=C2\CN(C)C/C(=C\c3ccc(C(OCC)OCC)cc3)C2=O)cc1 .
73

====

The entries below come with measured IC50 values attached.
Assay: Inhibition of sPLA2-V (unknown origin) using substrate 1,2-bis(heptanoylthio)-glycerophosphocholine by Ellman's method based photometric assay
Set-up: species or system Homo sapiens
Value expressed in µM; do not type the unit.

Please review the entries below; each comes with its answer.
[[record]]
molecule = "O=C1/C(=C/c2ccc(N3CCCC3)cc2)CNC/C1=C\\c1ccc(N2CCCC2)cc1"
test_result = 12.1

[[record]]
molecule = "CCOC(OCC)c1ccc(/C=C2\\COC/C(=C\\c3ccc(C(OCC)OCC)cc3)C2=O)cc1"
test_result = 8.76

[[record]]
molecule = "CCOC(OCC)c1ccc(/C=C2\\CCC/C(=C\\c3ccc(C(OCC)OCC)cc3)C2=O)cc1"
test_result = 12.6

[[record]]
molecule = "CN(C)c1ccc(/C=C2/CCC/C(=C\\c3ccc(N(C)C)cc3[N+](=O)[O-])C2=O)c([N+](=O)[O-])c1"
test_result = 11.2


GET /values?readout=IC50&item= COc1cc(/C=C/C(=O)CC(=O)/C=C/c2ccc(O)c(OC)c2)ccc1O [CURCUMIN]
10.1

====

Each entry below carries its measured pIC50, system: Lipoxygenase (Glycine max, UniProt Q39829).
Just the number, please; pIC50 means minus log10 of the concentration in mol/L.

Reference set (2 entries):
[[record]]
compound = "CCOC(OCC)c1ccc(/C=C/C(=O)/C=C/c2ccc(C(OCC)OCC)cc2)cc1"
measurement_type = "pIC50"
test_result = 3.68

[[record]]
compound = "CN(C)c1ccc(/C=C2\\COC/C(=C\\c3ccc(N(C)C)cc3[N+](=O)[O-])C2=O)c([N+](=O)[O-])c1"
measurement_type = "pIC50"
test_result = 4.35


Now consider a different compound.
Lookup: pIC50 / Lipoxygenase (Glycine max, UniProt Q39829) / CC(Cc1ccc(O)c(O)c1)C(C)Cc1ccc(O)c(O)c1 (stereo not drawn) [NORDIHYDROGUAIARETIC ACID]
5.03
